// provenance: ChEMBL document CHEMBL1811853

target: Serine/threonine-protein kinase Chk2 (Homo sapiens, UniProt O96017); test: Inhibition of CHK2 at 30 uM by microfluidic mobility shift assay
Sequence (O96017 whole entry): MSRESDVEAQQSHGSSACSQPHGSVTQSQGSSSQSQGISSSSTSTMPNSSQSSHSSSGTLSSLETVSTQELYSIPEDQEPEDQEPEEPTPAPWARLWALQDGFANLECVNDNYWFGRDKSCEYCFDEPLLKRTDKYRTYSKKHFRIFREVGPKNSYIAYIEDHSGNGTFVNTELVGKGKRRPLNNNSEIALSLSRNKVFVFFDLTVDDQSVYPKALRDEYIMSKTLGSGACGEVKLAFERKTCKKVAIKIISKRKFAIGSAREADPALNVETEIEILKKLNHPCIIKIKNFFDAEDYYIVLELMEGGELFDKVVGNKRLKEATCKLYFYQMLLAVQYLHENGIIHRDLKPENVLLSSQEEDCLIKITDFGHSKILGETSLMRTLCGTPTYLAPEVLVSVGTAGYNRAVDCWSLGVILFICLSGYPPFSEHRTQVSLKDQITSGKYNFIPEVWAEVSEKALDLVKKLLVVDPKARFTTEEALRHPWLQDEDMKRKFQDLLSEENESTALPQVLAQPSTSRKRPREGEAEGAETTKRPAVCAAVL
The entries below come with measured inhibition values attached.

structure_notation | inhibition
Nc1n[nH]c2cc(-c3ccccn3)[nH]c(=O)c12 | 47%
Nc1n[nH]c2cc(-c3ccc(N4CCOCC4)cc3)[nH]c(=O)c12 | 38%
Nc1c2cnc(-c3ccccc3)cc2nn1-c1ccccc1 | 7%
COC(=O)CCc1c(C)[nH]c(=O)c2c(N)nn(C)c12 | -1%
Cn1nc(N)c2c(=O)[nH]c(-c3ccccc3)cc21 | 16%
Cc1cc2c(c(N)nn2C)c(=O)[nH]1 | 3%
CC(=O)Nc1nn(C)c2cc(-c3ccccc3)[nH]c(=O)c12 | 4%
Nc1n[nH]c2cc(CC3CCNCC3)[nH]c(=O)c12 | 7%
Cc1cc2c(c(N)nn2C)c(N2CC[C@H](O)C2)n1 | -2%
Cc1cc2[nH]nc(N)c2cn1 | 7%
COCCNc1nc(C)cc2nn(-c3ccccc3)c(N)c12 | 4%
COc1ccc(-c2cc3c(c(N)nn3C)c(=O)[nH]2)cc1 | 16%
CC(C)(C)c1cc2nn(-c3ccccc3)c(N)c2c(=O)[nH]1 | 5%
Cc1cc2c(c(NS(C)(=O)=O)nn2C)c(=O)[nH]1 | -1%
Cc1cc2[nH]nc(N)c2c(N2CCCCC2)n1 | 33%
COc1ccc(-c2c(C)[nH]c(=O)c3c(N)nn(C)c23)cc1 | 18%
Cn1nc(N)c2cnc(-c3ccccc3)cc21 | 5%
COCCNc1nc(-c2ccccc2)cc2c1c(N)nn2C | 8%
CN1CCN(c2ccc(-c3cc4[nH]nc(N)c4c(=O)[nH]3)cc2)CC1 | 68%
Cc1cc2nc(N)nc(N)c2c(=O)[nH]1 | 16%
COCCNc1nc(C)cc2c1c(N)nn2C | -2%
Cc1cc2nc(-c3ccccc3)nc(N)c2c(=O)[nH]1 | 4%
COc1ccc(-c2cc3nn(-c4ccccc4)c(N)c3c(=O)[nH]2)cc1 | -3%
Cc1nc(N)c2c(=O)[nH]c(C)cc2n1 | 5%
Nc1c2c(=O)[nH]c(-c3ccccc3)cc2nn1-c1ccccn1 | 18%
Cc1[nH]c(=O)c2c(N)n(-c3ccccc3)nc2c1-c1ccccc1 | -1%
Nc1n[nH]c2cc(-c3cccs3)[nH]c(=O)c12 | 59%
Cc1cc2[nH]ncc2c(=O)[nH]1 | 12%
Cc1cc2[nH]nc(N)c2c(N2CCOCC2)n1 | 23%
COc1cccc(-c2cc3[nH]nc(N)c3c(=O)[nH]2)c1 | 52%
Nc1n[nH]c2cc(-c3ccncc3)[nH]c(=O)c12 | 34%
Nc1n[nH]c2c3c([nH]c(=O)c12)CCCC3 | 7%
CC(C)(C)c1cc2[nH]nc(N)c2c(=O)[nH]1 | 21%
COc1ccccc1-c1cc2nn(-c3ccccc3)c(N)c2c(=O)[nH]1 | 16%
Cc1cc2nn(-c3ccccc3)c(N)c2c(=O)[nH]1 | -4%
COc1ccc(-c2cc3[nH]nc(N)c3c(=O)[nH]2)cc1 | 43%
CN1CCN(c2ccc(-c3cc4c(c(N)nn4C)c(=O)[nH]3)cc2)CC1 | 53%
Cc1cc2nn(-c3ccccc3)c(N)c2c(N2CCCCC2)n1 | 4%
Cc1cc2c(c(N)nn2C)c(N2CCCCC2)n1 | 4%
CN1CCN(c2ccc(-c3cc4nn(-c5ccccc5)c(N)c4c(=O)[nH]3)cc2)CC1 | 18%
Cc1cc2[nH]nc(N)c2c(=O)[nH]1 | 27%
Nc1n[nH]c2cc(-c3cccnc3)[nH]c(=O)c12 | 27%
Cc1cc2c(c(NC(=O)Nc3ccccc3)nn2C)c(=O)[nH]1 | 2%
CC(=O)Nc1nn(C)c2cc(-c3ccc(N4CCN(C)CC4)cc3)[nH]c(=O)c12 | 3%
Cn1nc2c3c(nc(-c4ccccc4)cc31)NCC(=O)N2 | 5%
Nc1c2c(=O)[nH]c(-c3ccccn3)cc2nn1-c1ccccc1 | 3%
Nc1c2c(=O)[nH]c(-c3ccccc3)cc2nn1-c1ccccc1 | -8%
Cc1cc2c(c(N)nn2C)c(N2CCOCC2)n1 | 3%

---

The entries below come with measured inhibition values attached.
biological target: Mitogen-activated protein kinase 14 (Homo sapiens); assay: Inhibition of p38alpha at 30 uM by microfluidic mobility shift assay
Sequence (Q16539 whole entry): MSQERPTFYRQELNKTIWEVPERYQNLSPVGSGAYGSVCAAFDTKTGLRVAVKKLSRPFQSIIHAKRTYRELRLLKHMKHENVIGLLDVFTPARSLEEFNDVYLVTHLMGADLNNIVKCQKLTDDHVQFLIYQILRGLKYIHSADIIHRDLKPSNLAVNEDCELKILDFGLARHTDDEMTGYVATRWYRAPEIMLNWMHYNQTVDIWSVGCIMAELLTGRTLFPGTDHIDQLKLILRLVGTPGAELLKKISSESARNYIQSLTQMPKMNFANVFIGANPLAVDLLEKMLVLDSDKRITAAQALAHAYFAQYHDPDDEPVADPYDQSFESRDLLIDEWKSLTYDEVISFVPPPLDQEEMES
property_name: inhibition (%)

structure_notation | property_name | value_measured
COc1ccc(-c2c(C)[nH]c(=O)c3c(N)nn(C)c23)cc1 | inhibition | -1
Cc1cc2c(cn1)c(N)nn2C | inhibition | 2
CN1CCN(c2ccc(-c3cc4c(c(N)nn4C)c(=O)[nH]3)cc2)CC1 | inhibition | 3
Cc1cc2[nH]ncc2c(=O)[nH]1 | inhibition | -5
Cc1cc2c(c(NC(=O)Nc3ccccc3)nn2C)c(=O)[nH]1 | inhibition | 7
Nc1c2cnc(-c3ccccc3)cc2nn1-c1ccccc1 | inhibition | 55
Cc1cc2c(c(N)nn2C)c(N2CCOCC2)n1 | inhibition | 2
Cn1nc(N)c2c(=O)[nH]c(-c3ccccn3)cc21 | inhibition | 1
Cc1cc2nn(-c3ccccc3)c(N)c2c(=O)[nH]1 | inhibition | 26
Cn1nc(N)c2cnc(-c3ccccc3)cc21 | inhibition | 0

---

The entries below come with measured inhibition values attached.
target: MAP kinase-activated protein kinase 2 (Homo sapiens, UniProt P49137); assay: Inhibition of MAPKAPK2 at 30 uM by microfluidic mobility shift assay
Sequence (P49137 whole entry, looked up): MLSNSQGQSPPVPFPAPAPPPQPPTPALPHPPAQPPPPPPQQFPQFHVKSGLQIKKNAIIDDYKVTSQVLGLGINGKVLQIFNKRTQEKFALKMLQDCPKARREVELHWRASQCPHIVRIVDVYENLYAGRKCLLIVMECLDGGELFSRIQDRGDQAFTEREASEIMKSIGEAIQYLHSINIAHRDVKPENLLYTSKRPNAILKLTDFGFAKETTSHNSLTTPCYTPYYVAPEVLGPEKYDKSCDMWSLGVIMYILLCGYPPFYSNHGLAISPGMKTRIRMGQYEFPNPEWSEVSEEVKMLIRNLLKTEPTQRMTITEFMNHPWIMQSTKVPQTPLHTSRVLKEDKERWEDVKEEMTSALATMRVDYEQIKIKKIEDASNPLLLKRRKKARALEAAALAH

structure_notation | unit_of_measure | inhibition
COCCNc1nc(C)cc2c1c(N)nn2C | % | 6
CN1CCN(c2ccc(-c3cc4c(c(N)nn4C)c(=O)[nH]3)cc2)CC1 | % | 45
Cc1cc2c(c(N)nn2C)c(N2CCOCC2)n1 | % | -2
CC(C)(C)c1cc2[nH]nc(N)c2c(=O)[nH]1 | % | 39
Nc1n[nH]c2c3c([nH]c(=O)c12)CCCC3 | % | 5
Cc1cc2nn(-c3ccccc3)c(N)c2c(N2CCCCC2)n1 | % | 7
Nc1n[nH]c2cc(-c3cccs3)[nH]c(=O)c12 | % | 58
CN1CCN(c2ccc(-c3cc4[nH]nc(N)c4c(=O)[nH]3)cc2)CC1 | % | 55
Cc1nc(N)c2c(=O)[nH]c(C)cc2n1 | % | 18
COc1ccccc1-c1cc2nn(-c3ccccc3)c(N)c2c(=O)[nH]1 | % | -1
COC(=O)CCc1c(C)[nH]c(=O)c2c(N)nn(C)c12 | % | 11
O=S(=O)(NCCNC/C=C/c1ccc(Br)cc1)c1cccc2cnccc12 | % | 41
Cc1cc2[nH]nc(N)c2c(=O)[nH]1 | % | 30
Cc1cc2[nH]ncc2c(=O)[nH]1 | % | 11
Cc1cc2c(cn1)c(N)nn2C | % | -2
Cc1cc2c(c(N)nn2C)c(N2CC[C@H](O)C2)n1 | % | 2
Nc1n[nH]c2cc(-c3ccncc3)[nH]c(=O)c12 | % | 37
CN1CCN(c2ccc(-c3cc4nn(-c5ccccc5)c(N)c4c(=O)[nH]3)cc2)CC1 | % | 4
COc1ccc(S(=O)(=O)Nc2nn(C)c3cc(C)[nH]c(=O)c23)c(OC)c1 | % | 2
CC(=O)Nc1nn(C)c2cc(-c3ccccc3)[nH]c(=O)c12 | % | 9
Nc1c2c(=O)[nH]c(-c3ccccc3)cc2nn1-c1ccccn1 | % | 6
COc1cccc(-c2cc3c(c(N)nn3C)c(=O)[nH]2)c1 | % | 47
Cc1cc2nc(-c3ccccc3)nc(N)c2c(=O)[nH]1 | % | 22
Cc1cc2nn(-c3ccccc3)c(N)c2c(=O)[nH]1 | % | -4

---

target: Serine/threonine-protein kinase Chk1 (Homo sapiens) (UniProt O14757); assay: Inhibition of CHK1 at 30 uM by microfluidic mobility shift assay
Sequence (O14757 whole entry): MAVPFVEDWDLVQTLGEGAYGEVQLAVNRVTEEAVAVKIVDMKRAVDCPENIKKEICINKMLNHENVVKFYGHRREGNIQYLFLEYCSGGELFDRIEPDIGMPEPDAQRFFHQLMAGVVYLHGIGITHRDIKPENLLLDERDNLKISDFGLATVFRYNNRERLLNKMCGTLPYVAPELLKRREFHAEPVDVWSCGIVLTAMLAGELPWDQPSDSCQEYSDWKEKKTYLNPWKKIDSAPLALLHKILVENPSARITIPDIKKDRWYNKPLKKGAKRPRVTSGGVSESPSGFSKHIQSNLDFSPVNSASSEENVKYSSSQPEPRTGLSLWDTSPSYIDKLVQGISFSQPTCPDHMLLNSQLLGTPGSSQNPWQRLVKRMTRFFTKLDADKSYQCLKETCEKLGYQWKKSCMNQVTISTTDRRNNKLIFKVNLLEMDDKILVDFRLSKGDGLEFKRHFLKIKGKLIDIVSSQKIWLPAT
Classification scheme (inhibition): 1 = under 9%, 2 = from 9% up to 20%, 3 = 20% and over

structure_notation | category_label
Nc1n[nH]c2cc(-c3ccccn3)[nH]c(=O)c12 | 3
COCCNc1nc(C)cc2c1c(N)nn2C | 1
COCCNc1nc(C)cc2nn(-c3ccccc3)c(N)c12 | 1
Cc1cc2c(cn1)c(N)nn2C | 2
COc1ccc(-c2cc3[nH]nc(N)c3c(=O)[nH]2)cc1 | 2
CN1CCN(c2ccc(-c3cc4nn(-c5ccccc5)c(N)c4c(=O)[nH]3)cc2)CC1 | 3
Cc1cc2nc(N)nc(N)c2c(=O)[nH]1 | 2
Nc1n[nH]c2cc(-c3ccncc3)[nH]c(=O)c12 | 3

---

molecular target: Mitogen-activated protein kinase 3 (Homo sapiens) (UniProt P27361); assay: Inhibition of ERK1 at 30 uM by microfluidic mobility shift assay
Sequence (P27361 whole entry): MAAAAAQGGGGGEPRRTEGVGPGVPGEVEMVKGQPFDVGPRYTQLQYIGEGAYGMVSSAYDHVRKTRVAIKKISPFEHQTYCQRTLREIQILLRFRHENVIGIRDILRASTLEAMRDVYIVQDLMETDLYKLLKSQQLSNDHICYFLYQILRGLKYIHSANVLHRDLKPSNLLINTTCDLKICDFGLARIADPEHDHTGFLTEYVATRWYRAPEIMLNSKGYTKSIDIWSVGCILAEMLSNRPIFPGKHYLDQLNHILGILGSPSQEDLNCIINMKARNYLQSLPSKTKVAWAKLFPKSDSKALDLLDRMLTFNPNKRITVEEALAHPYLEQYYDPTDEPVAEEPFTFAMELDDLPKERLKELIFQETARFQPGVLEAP
The entries below come with measured inhibition values attached.

structure_notation | target_under_test | unit_of_measure | inhibition
Cc1cc2c(c(N)nn2C)c(N2CCOCC2)n1 | Mitogen-activated protein kinase 3 (Homo sapiens) (UniProt P27361) | % | 4
Nc1n[nH]c2cc(-c3ccc(N4CCOCC4)cc3)[nH]c(=O)c12 | Mitogen-activated protein kinase 3 (Homo sapiens) (UniProt P27361) | % | 9
Cc1cc2c(cn1)c(N)nn2C | Mitogen-activated protein kinase 3 (Homo sapiens) (UniProt P27361) | % | 6
